B1: Storkhead-box protein 2, residues 64 to 141; numbered along this chain, Q9P2F5 (parent)
chain: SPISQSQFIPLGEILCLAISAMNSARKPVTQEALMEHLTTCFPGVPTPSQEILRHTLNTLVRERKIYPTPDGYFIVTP

# Variants of: B1
# ASSAY OVERVIEW: abundance fitness (aPCA) (normalised: wild type 0, dead -1); higher = more abundant; growth selection in yeast, the domain comes from the species named
# STATED CONDITIONS: Homo sapiens
If the reported abundance fitness equals or exceeds -0.1, assign Y. If not, assign N.

Prompt: Is the recorded value of abundance fitness equal to or greater than -0.1 for this variant? Q7C
Completion: N

Prompt: Is the recorded value of abundance fitness equal to or greater than -0.1 for this variant? L15P
Completion: N

Prompt: Is the recorded value of abundance fitness equal to or greater than -0.1 for this variant? T40N
Completion: N

Prompt: Is the recorded value of abundance fitness equal to or greater than -0.1 for this variant? S24V
Completion: Y

Prompt: Is the recorded value of abundance fitness equal to or greater than -0.1 for this variant? E63H
Completion: Y

Prompt: Is the recorded value of abundance fitness equal to or greater than -0.1 for this variant? K65L
Completion: Y

Prompt: Is the recorded value of abundance fitness equal to or greater than -0.1 for this variant? P68R
Completion: Y

Prompt: Is the recorded value of abundance fitness equal to or greater than -0.1 for this variant? P2K
Completion: N

Prompt: Is the recorded value of abundance fitness equal to or greater than -0.1 for this variant? F8L
Completion: N

Prompt: Is the recorded value of abundance fitness equal to or greater than -0.1 for this variant? P43I
Completion: Y

Prompt: Is the recorded value of abundance fitness equal to or greater than -0.1 for this variant? E63P
Completion: N

Prompt: Is the recorded value of abundance fitness equal to or greater than -0.1 for this variant? I66C
Completion: Y

Prompt: Is the recorded value of abundance fitness equal to or greater than -0.1 for this variant? R54S
Completion: Y

Prompt: Is the recorded value of abundance fitness equal to or greater than -0.1 for this variant? V61Y
Completion: N

Prompt: Is the recorded value of abundance fitness equal to or greater than -0.1 for this variant? S20I
Completion: N

Prompt: Is the recorded value of abundance fitness equal to or greater than -0.1 for this variant? R64E
Completion: Y

Prompt: Is the recorded value of abundance fitness equal to or greater than -0.1 for this variant? Q7D
Completion: Y

Prompt: Is the recorded value of abundance fitness equal to or greater than -0.1 for this variant? P10A
Completion: Y

Prompt: Is the recorded value of abundance fitness equal to or greater than -0.1 for this variant? L11D
Completion: N

Prompt: Is the recorded value of abundance fitness equal to or greater than -0.1 for this variant? T30Q
Completion: Y

Prompt: Is the recorded value of abundance fitness equal to or greater than -0.1 for this variant? L60N
Completion: N

Prompt: Is the recorded value of abundance fitness equal to or greater than -0.1 for this variant? T30L
Completion: N

Prompt: Is the recorded value of abundance fitness equal to or greater than -0.1 for this variant? L60F
Completion: N

Prompt: Is the recorded value of abundance fitness equal to or greater than -0.1 for this variant? T77L
Completion: Y

Prompt: Is the recorded value of abundance fitness equal to or greater than -0.1 for this variant? Q50R
Completion: Y

Prompt: Is the recorded value of abundance fitness equal to or greater than -0.1 for this variant? E51R
Completion: N

Prompt: Is the recorded value of abundance fitness equal to or greater than -0.1 for this variant? N23I
Completion: N

Prompt: Is the recorded value of abundance fitness equal to or greater than -0.1 for this variant? Q7K
Completion: Y

Prompt: Is the recorded value of abundance fitness equal to or greater than -0.1 for this variant? C41A
Completion: Y

Prompt: Is the recorded value of abundance fitness equal to or greater than -0.1 for this variant? A33P
Completion: N

Prompt: Is the recorded value of abundance fitness equal to or greater than -0.1 for this variant? A21C
Completion: N

Prompt: Is the recorded value of abundance fitness equal to or greater than -0.1 for this variant? T30N
Completion: N

Prompt: Is the recorded value of abundance fitness equal to or greater than -0.1 for this variant? K27N
Completion: N

Prompt: Is the recorded value of abundance fitness equal to or greater than -0.1 for this variant? A25L
Completion: Y

Prompt: Is the recorded value of abundance fitness equal to or greater than -0.1 for this variant? T56D
Completion: Y

Prompt: Is the recorded value of abundance fitness equal to or greater than -0.1 for this variant? T30R
Completion: Y

Prompt: Is the recorded value of abundance fitness equal to or greater than -0.1 for this variant? I9L
Completion: Y

Prompt: Is the recorded value of abundance fitness equal to or greater than -0.1 for this variant? S1P
Completion: N

Prompt: Is the recorded value of abundance fitness equal to or greater than -0.1 for this variant? L53D
Completion: N

Prompt: Is the recorded value of abundance fitness equal to or greater than -0.1 for this variant? S49E
Completion: N

Prompt: Is the recorded value of abundance fitness equal to or greater than -0.1 for this variant? F74I
Completion: Y

Prompt: Is the recorded value of abundance fitness equal to or greater than -0.1 for this variant? K27D
Completion: N

Prompt: Is the recorded value of abundance fitness equal to or greater than -0.1 for this variant? F74N
Completion: N

Prompt: Is the recorded value of abundance fitness equal to or greater than -0.1 for this variant? V29C
Completion: Y

Prompt: Is the recorded value of abundance fitness equal to or greater than -0.1 for this variant? I9M
Completion: Y
